tested system: T1, human Fc-PD-1 (R&D systems) (human, UniProt Q15116 25-167)
T1 construct: Bought Fc fusion coated on the ELISA plate; also called human PD-1; not shown: Fc part of the bought fusion protein
T1 sequence (Q15116 25-167 limits assumed): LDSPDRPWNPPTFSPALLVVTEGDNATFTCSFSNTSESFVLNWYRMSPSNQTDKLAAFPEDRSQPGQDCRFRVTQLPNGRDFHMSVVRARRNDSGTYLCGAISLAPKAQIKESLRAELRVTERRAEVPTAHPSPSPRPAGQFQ
procedure text: competition ELISA on coated human Fc-PD-1; competitor biotinylated EH12.2H7
value kind: IC50 (µg/mL)
Your answer is read as µg/mL, so omit the unit and give the number.

input: Data request, read-out IC50, for EH12.2H7 composite, human antibody VH4/VK4 (antibody, V domains shown, V regions cloned into vectors containing human constant regions (quantified against an IgG1/kappa standard; isotype not expressly stated)) VH: QVQLVQSGHEVKQPGASVKMSCKASGYSFTSSWIHWVRQAPGQGLEWIGYIYPSTGFTEYNQKFKDRATLTADKSTSTAYMELSSLRSEDTAVYYCARWRDSSGYHAMDYWGQGTLVTVSS VL: DIVLTQSPATLSLSPGQRLTISCRASQSVSTSGYSYMHWYQQKPDQSPKLLIKFGSNLESGIPARFSGSGSGTDFTLTISSLEPEDFAVYYCQHSWEIPYTFGQGTKLEIK
output: 0.91

input: Data request, read-out IC50, for EH12.2H7 composite, human antibody VH4/VK3 (antibody, V domains shown, V regions cloned into vectors containing human constant regions (quantified against an IgG1/kappa standard; isotype not expressly stated)) VH: QVQLVQSGHEVKQPGASVKMSCKASGYSFTSSWIHWVRQAPGQGLEWIGYIYPSTGFTEYNQKFKDRATLTADKSTSTAYMELSSLRSEDTAVYYCARWRDSSGYHAMDYWGQGTLVTVSS VL: EIVLTQSPATLSLSPGQRLTISCRASQSVSTSGYSYMHWYQQKPDQSPKLLIKFGSNLESGIPARFSGSGSGTDFTLTISSLEPEDFATYYCQHSWEIPYTFGQGTKLEIK
output: 0.57
